Recorded values, source patent US5798359A.

tested-system: human neurokinin 1 (NK1) receptor (Homo sapiens, UniProt P25103)
Sequence (P25103 whole entry): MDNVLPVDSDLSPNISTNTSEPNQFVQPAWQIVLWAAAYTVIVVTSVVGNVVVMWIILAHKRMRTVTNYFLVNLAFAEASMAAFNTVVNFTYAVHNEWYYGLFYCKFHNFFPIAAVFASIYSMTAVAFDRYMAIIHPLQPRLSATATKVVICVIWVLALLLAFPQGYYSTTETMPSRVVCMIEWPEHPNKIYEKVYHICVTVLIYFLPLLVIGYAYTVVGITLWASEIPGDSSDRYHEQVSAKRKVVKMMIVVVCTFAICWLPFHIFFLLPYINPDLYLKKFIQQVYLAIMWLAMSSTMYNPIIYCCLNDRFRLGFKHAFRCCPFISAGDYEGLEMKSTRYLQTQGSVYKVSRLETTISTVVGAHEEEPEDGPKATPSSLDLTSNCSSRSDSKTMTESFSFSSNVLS
property-measured: Ki
Enter the number, and then the unit.

(Q) Enter reported Ki observed with human neurokinin 1 (NK1) receptor (Homo sapiens, UniProt P25103) for O=C(CNC1CCN(Cc2ccccc2)CC1)N1CCN(Cc2cccc(C(F)(F)F)c2)CC1c1ccc(Cl)c(Cl)c1 (stereo not shown)
(A) 30 nM
